Tested on: human liver microsomes
Experiment: Cis versus trans prodrug activation in human liver microsomes
Format: in vitro ADME
Details: 100 μM prodrug, 2 mg/mL human liver microsomes
reported.metric: Activation (below measureable detection limit, text)

| molecule | test.value |
| --- | --- |
| Nc1ncnc2c1ncn2CCOCP1(=O)OCC[C@@H](c2cccc(Cl)c2)O1 (stereo in doubt) [trans-] | < 0.05 nmol/min/mg |

###

Test system: freshly isolated rat hepatocytes
Experiment: PMEApp accumulation in rat hepatocytes following incubation with Compound 56 and PMEA (25 μM)
Format: cell-based
Details: 0–4 h, rat hepatocytes 20 mg/ml

| smiles.repr | AUC0-4h PMEApp levels in hepatocytes, nmol·h/g |
| --- | --- |
| Nc1ncnc2c1ncn2CCOCP(=O)(O)O | 84 |

###

Assay: PMEApp accumulation in liver organ following oral administration to normal fasted rats
Type: in vivo, rat
Conditions: 30 mg/kg PMEA equivalents p.o.
reported.metric: Rats, PMEApp levels in liver organ @ 8 hr., 30 mg/kg, p.o.

| molecule | test.value |
| --- | --- |
| Nc1ncnc2c1ncn2CCOCP1(=O)OCCC(c2cccc(Br)c2)O1 (mixture of isomers) [Compound 7] | 2.2 nmol/g |
| Nc1ncnc2c1ncn2CCOCP1(=O)OCCC(c2cc(F)cc(F)c2)O1 (mixture of isomers) [Compound 10] | 2.2 nmol/g |
| Nc1ncnc2c1ncn2CCOCP1(=O)OCCC(c2cccc(Cl)c2)O1 (racemic) [Compound 4] | 6.6 nmol/g |
| Nc1ncnc2c1ncn2CCOCP1(=O)OCCC(c2ccccc2Br)O1 (stereo not drawn) [Compound 6] | 7.1 nmol/g |
| Nc1ncnc2c1ncn2CCOCP1(=O)OCCC(c2ccc(Br)c(F)c2)O1 (mixture of isomers) [Compound 5] | 2.6 nmol/g |
| Nc1ncnc2c1ncn2CCOCP1(=O)OCCC(c2ccccc2)O1 (mixture of isomers) [Compound 1] | 0.6 nmol/g |

###

Experiment: Pharmacokinetics and oral bioavailability in beagle dog
Format: in vivo
Settings: 40 mg/kg p.o., dog; read-out: Mean plasma Cmax of PMEA following oral administration

| compound | Cmax |
| --- | --- |
| Nc1ncnc2c1ncn2CCOCP1(=O)OCCC(c2cccc(Cl)c2)O1 (racemic) | ~880 nM |
